Values were extracted from BindingDB's records for doi:10.1021/jm991079p.

- Experimental target: Sigma non-opioid intracellular receptor 1 (Cavia porcellus) (UniProt Q60492)
- Sequence (Q60492 whole entry, looked up): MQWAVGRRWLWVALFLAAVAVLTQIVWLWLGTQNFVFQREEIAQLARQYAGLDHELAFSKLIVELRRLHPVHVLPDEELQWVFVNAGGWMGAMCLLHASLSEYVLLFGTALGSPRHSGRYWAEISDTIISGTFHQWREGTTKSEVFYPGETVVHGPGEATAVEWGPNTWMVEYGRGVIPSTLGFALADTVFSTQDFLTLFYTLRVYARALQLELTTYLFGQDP
- Measurement notes: Binding affinity was measured on Sigma receptor type 1 with guinea pig membranes and [3H]- pentazocine as ligand.
pKi: −log10 of the molar value.
Property name: pKi

{"columns": ["Smiles str", "pKi"],
 "data": [
  ["CCN(CC)CCNC(=O)c1cc(Br)c(N)c(I)c1OC", 6.56]
]}

a. CCN(CC)CCNC(=O)c1cc(I)c(N)cc1OC
b. CCN(CC)CCNC(=O)c1cc(I)c(NC(C)=O)cc1OC
c. CCN(CC)CCNC(=O)c1ccc(OC)c(I)c1
d. CCN(CC)CCNC(=O)c1cc(I)ccc1OC
Order each entry by recorded pKi, climbing from the minimum. # list labels per requested ordering
b, a, c, d
(b: 5.28, a: 6.32, c: 6.60, d: 7.04)

====

- Experimental target: Sigma-2 receptor (TMEM97) (Rattus norvegicus)
- Measurement notes: Binding affinity was measured on Sigma receptor type 2 with rat liver membranes and [3H]- DTG as ligand.
Property name: Ki (µM)

{"columns": ["Smiles str", "Value units", "Ki"],
 "data": [
  ["CCN(CC)CCNC(=O)c1cc(I)c(NC(C)=O)cc1OC", "µM", 115]
]}

1. CCN(CC)CCNC(=O)c1cc(I)c(N)cc1OC
2. CCN(CC)CCNC(=O)c1cc(I)ccc1OC
3. CCN(CC)CCNC(=O)c1cc(Br)c(N)c(I)c1OC
4. CCN(CC)CCNC(=O)c1ccc(OC)c(I)c1
Given 4 compounds, produce a descending ranking by Ki. Thanks in advance for listing the labels in the requested order.
1, 4, 3, 2
